assay: NCI Yeast Anticancer Drug Screen. Data for the bub3 strain (AID 167); settings: S. cerevisiae bub3 mutant strain, at 50.0 µM, hits give high values
The panel holds about 79,000 compounds, 15% with a hit somewhere; the sample as a whole holds those more often.

{"columns": ["compound", "measure unit", "growth inhibition"],
 "data": [
  ["CCCC(O)CNCc1ccc(N(C)C)cc1 (centres undefined)", "%", 46.7],
  ["COC1/C=C\\OC2(C)Oc3c(C)c(O)c4c(c3C2=O)C2=NC(C)(C)N(c3ccccc3)C2=C(NC(=O)/C(C)=C\\C=C\\C(C)C(O)C(C)C(O)C(C)C(OC(C)=O)C1C)C4=O (centres undefined)", "%", 27.9],
  ["CC(=O)Oc1c2c(c(OC(C)=O)c3c1n(C(C)=O)c1ccccc1n3C(C)=O)n(C(C)=O)c1ccccc1n2C(C)=O", "%", 69.8],
  ["O=C(Oc1ccc(/C=C/[n+]2ccccc2)c(OC(=O)c2ccccc2)c1)c1ccccc1", "%", -1.45],
  ["COc1ccc2c(Cc3cc(Cl)ccc3O)cncc2c1O", "%", 96],
  ["O=C1C(=O)C(Cl)=C(Cl)C(Cl)=C1Cl", "%", 99.3],
  ["CCCCCC(=O)NNc1ccccc1", "%", 83.1],
  ["O=C(CNC(=O)Nc1ccc(NC(=O)NCC(=O)Nc2ccc(C3=NCCN3)cc2)cc1)Nc1ccc(C2=NCCN2)cc1", "%", 96.4],
  ["CC(COC(=O)C(c1ccccc1)C1C=CCCC1)CN1CCCC1 (centres undefined)", "%", 74.5],
  ["CC(=O)N(C1=C(Cl)C(=O)c2ccccc2C1=O)c1ccc([N+](=O)[O-])cc1", "%", 98.6],
  ["CCOC(=O)N(c1ccccc1)N(CC)C(=O)/C(C)=N/Nc1ccc([N+](=O)[O-])cc1", "%", 95.8],
  ["CCOC(=O)CCCCCN", "%", 1.75],
  ["CCN(CC)CCCC(C)Nc1cc(O)c2c(c1O)C(=O)c1ccccc1C2=O (centres undefined)", "%", 97.8],
  ["CCCCCOC(=O)C(C)SC#N (centres undefined)", "%", 54.9],
  ["OCC(O)C(O)C(O)C(O)c1cnn(-c2ccccc2)n1 (centres undefined)", "%", -1.3],
  ["CCC(C)(C)c1ccc(OCCO)c([N+](=O)[O-])c1", "%", 72.4],
  ["Cc1ccc(C)c([N+](=O)[O-])c1", "%", 6.25],
  ["CC(C)(C)c1cc2c3c(c1)Oc1cc(C(C)(C)C)cc4c1C3(O)c1c(cc(C(C)(C)C)cc1O4)O2", "%", 84.7],
  ["CC(C)(C)OC(=O)NCCNC(=O)CN(CC(=O)O)C1CCCCC1N(CC(=O)O)CC(=O)O (centres undefined)", "%", 66.2],
  ["c1ccc2c(B(c3cccc4ccccc34)c3cccc4ccccc34)cccc2c1", "%", 98.8],
  ["O=C1C=CC(=O)N1c1ccc(Cl)cc1Br", "%", 58.4],
  ["CC(C(=O)N1C(=O)N(C(=O)C(C)C(O)c2ccccc2)C(c2ccccc2)C1c1ccccc1)C(O)c1ccccc1 (centres undefined)", "%", 88.2],
  ["CCOC(=O)CC[P+](Cc1ccccc1)(c1ccccc1)c1ccccc1", "%", 18.4],
  ["O=C(/C=C/c1ccccc1)CCN1CCN(CCC(=O)/C=C/c2ccccc2)CC1", "%", 99.4],
  ["N#Cc1c(-c2ccc(Cl)cc2)c(-c2ccc(Cl)cc2)nn(CCOC(=O)CN)c1=O", "%", 35.1],
  ["CCCCC(CC)CCC(C)OC(=O)C(O)c1ccccc1 (centres undefined)", "%", 75.5],
  ["COc1ccc2c(C)cc(N/N=C(\\C)c3ccccn3)nc2c1", "%", 99.7],
  ["CC(=O)c1nc2ccccc2n1C(C)C(=O)c1ccccc1 (centres undefined)", "%", 37.5],
  ["CNC(=O)N(C1=NCC(C)S1)c1ccc(C)c(C)c1 (centres undefined)", "%", 79.2],
  ["Clc1ccc(OCCC(Cn2ccnc2)c2ccc(Cl)cc2Cl)c(Cl)c1 (centres undefined)", "%", 48.1],
  ["COc1ccc(-c2nc(N)n(C)c2SSc2c(-c3ccc(OC)cc3)nc(N)n2C)cc1", "%", 3.6],
  ["Cc1ccc2c(c1)SSc1ccc(C)cc1SS2", "%", 73.2],
  ["Nc1cc2c(nc3c4ccccc4c(N)cc3[n+]2-c2cccc3ccccc23)c2ccccc12 (tested in a mixture with another compound)", "%", 84.8],
  ["O=C(CC1C=Cc2ccccc2N1C(=O)c1ccccc1)c1ccccc1 (centres undefined)", "%", 86],
  ["O=CNC(CCCC(=O)O)Cc1cc2ccccc2c2ccccc12 (centres undefined)", "%", 94.8],
  ["O=C1C=CC(=O)c2c(O)c(N3CCN(CCOCCO)CC3)c(Br)c(O)c21", "%", 85.9],
  ["CN(C)C1=NC2=S(SC(Nc3ccccc3)=N2)S1 (centres undefined)", "%", 44],
  ["O=C1c2ccccc2CC(Br)c2ccccc21 (centres undefined)", "%", 42.5],
  ["O=[N+]([O-])c1cccc2c(O)cccc12", "%", 47.2],
  ["O=C(Nc1ccccc1)OC1CCCC1", "%", 50.1],
  ["O=C(C[n+]1ccccc1Cl)c1ccc(F)cc1", "%", 1.45],
  ["OC(c1ccccc1)(c1ccccc1)C(F)(Cl)Cl", "%", 98.5],
  ["CCCCCC(CN(C)C)C(O)/C=C\\c1ccccc1 (centres undefined)", "%", 1.6],
  ["CN(C)c1ccc(C=Nc2cnc3ccccc3c2)cc1", "%", -3.65]
]}
